These compounds were tested on Estrogen receptor (Homo sapiens); AC50 is the recorded read-out. Further: assay procedure not described here.
Sequence (P03372 whole entry): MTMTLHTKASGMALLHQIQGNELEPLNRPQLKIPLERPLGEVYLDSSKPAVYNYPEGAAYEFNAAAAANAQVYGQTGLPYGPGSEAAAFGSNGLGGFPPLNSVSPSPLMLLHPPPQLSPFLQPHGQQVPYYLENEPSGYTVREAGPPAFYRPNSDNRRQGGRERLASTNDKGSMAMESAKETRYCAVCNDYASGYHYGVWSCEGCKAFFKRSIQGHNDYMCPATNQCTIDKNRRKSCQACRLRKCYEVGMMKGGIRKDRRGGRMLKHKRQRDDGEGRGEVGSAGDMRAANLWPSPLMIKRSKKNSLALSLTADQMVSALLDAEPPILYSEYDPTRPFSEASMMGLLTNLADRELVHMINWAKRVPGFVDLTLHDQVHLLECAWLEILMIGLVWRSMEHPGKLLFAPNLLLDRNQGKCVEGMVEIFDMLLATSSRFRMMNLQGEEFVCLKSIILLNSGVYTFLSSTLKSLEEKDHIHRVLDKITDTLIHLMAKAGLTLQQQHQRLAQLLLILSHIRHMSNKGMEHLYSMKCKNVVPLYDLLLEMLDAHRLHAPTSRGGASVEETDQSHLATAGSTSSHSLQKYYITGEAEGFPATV

>  <compound>
[H]/N=C(/N)N/C(=N/[H])NCCc1ccccc1 [PHENFORMIN]

>  <AC50>
> 30 µM

$$$$
>  <compound>
C=C[C@H]1C[N@@]2CC[C@H]1C[C@@H]2[C@@H](O)c1ccnc2ccc(OC)cc12 [QUINIDINE]

>  <AC50>
> 30 µM

$$$$
>  <compound>
C=CC[C@@H]1/C=C(\C)C[C@H](C)C[C@H](OC)[C@H]2O[C@@](O)(C(=O)C(=O)N3CCCC[C@H]3C(=O)O[C@H](/C(C)=C/[C@@H]3CC[C@@H](O)[C@H](OC)C3)[C@H](C)[C@@H](O)CC1=O)[C@H](C)C[C@@H]2OC [TACROLIMUS ANHYDROUS]

>  <AC50>
> 30 µM

$$$$
>  <compound>
C=CCNc1nc(NCC=C)nc(N2CCN(C(c3ccc(F)cc3)c3ccc(F)cc3)CC2)n1 [ALMITRINE]

>  <AC50>
> 30 µM

$$$$
>  <compound>
CCCC(CCC)C(=O)O [VALPROIC ACID]

>  <AC50>
> 30 µM

$$$$
>  <compound>
C[C@H](Cc1ccc(O)c(O)c1)[C@@H](C)Cc1ccc(O)c(O)c1 [MASOPROCOL]

>  <AC50>
0.749 µM

$$$$
>  <compound>
O=C1CN=C(c2ccccc2)c2cc([N+](=O)[O-])ccc2N1 [NITRAZEPAM]

>  <AC50>
> 10 µM

$$$$
>  <compound>
CN(C)CCCNc1c2ccccc2nc2cccc([N+](=O)[O-])c12 [NITRACRINE]

>  <AC50>
> 30 µM

$$$$
>  <compound>
CCN(CC)C(=O)Nc1ccc(OCC(O)CNC(C)(C)C)c(C(C)=O)c1 (centres undefined) [CELIPROLOL]

>  <AC50>
> 30 µM

$$$$
>  <compound>
C[C@]12C=CC(=O)N[C@@H]1CC[C@@H]1[C@@H]2CC[C@]2(C)[C@@H](C(=O)Nc3cc(C(F)(F)F)ccc3C(F)(F)F)CC[C@@H]12 [DUTASTERIDE]

>  <AC50>
> 10 µM

$$$$
>  <compound>
Cn1c(=O)cc(N2CCC[C@@H](N)C2)n(Cc2ccccc2C#N)c1=O [ALOGLIPTIN]

>  <AC50>
> 30 µM

$$$$
>  <compound>
CCC(C)C(CC)C(N)=O (centres undefined) [VALNOCTAMIDE]

>  <AC50>
> 30 µM

$$$$
>  <compound>
Cc1ncc2n1-c1ccc(Cl)cc1C(c1ccccc1F)=NC2 [MIDAZOLAM]

>  <AC50>
> 30 µM

$$$$
>  <compound>
CCC(C)C1(CC)C(=O)NC(=O)NC1=O (centres undefined) [BUTABARBITAL]

>  <AC50>
> 30 µM

$$$$
>  <compound>
O=C1C(CC[S+]([O-])c2ccccc2)C(=O)N(c2ccccc2)N1c1ccccc1 (centres undefined) [SULFINPYRAZONE]

>  <AC50>
> 10 µM

$$$$
>  <compound>
COc1ccc2nc3cc(Cl)ccc3c(Nc3cc(CN4CCCC4)c(O)c(CN4CCCC4)c3)c2n1 [PYRONARIDINE]

>  <AC50>
> 30 µM

$$$$
>  <compound>
O=C1CCc2cc(OCCCCc3nnnn3C3CCCCC3)ccc2N1 [CILOSTAZOL]

>  <AC50>
> 30 µM

$$$$
>  <compound>
OCc1cc(C(O)CNCCCCCCOCCCCc2ccccc2)ccc1O (centres undefined) [SALMETEROL]

>  <AC50>
> 30 µM

$$$$
>  <compound>
CC1(C)S[C@@H]2[C@H](NC(=O)[C@H](N)c3ccccc3)C(=O)N2[C@H]1C(=O)OCOC(=O)[C@@H]1N2C(=O)C[C@H]2S(=O)(=O)C1(C)C [SULTAMICILLIN]

>  <AC50>
> 30 µM

$$$$
>  <compound>
O=C(O)c1cn(C2CC2)c2cc(N3CCNCC3)c(F)cc2c1=O [CIPROFLOXACIN]

>  <AC50>
> 30 µM

$$$$
>  <compound>
O=C(O)c1ccccc1Nc1cc(Cl)ccc1C(=O)O [LOBENZARIT]

>  <AC50>
> 30 µM

$$$$
>  <compound>
CCCN(CCC)C(=O)Cc1c(-c2ccc(Cl)cc2)nc2ccc(Cl)cn12 [ALPIDEM]

>  <AC50>
> 30 µM

$$$$
>  <compound>
C#CCOc1ccc(N)cc1C(=O)NCCCC [PARSALMIDE]

>  <AC50>
> 30 µM

$$$$
>  <compound>
O=C1CN=C(c2ccccn2)c2cc(Br)ccc2N1 [BROMAZEPAM]

>  <AC50>
> 10 µM

$$$$
>  <compound>
CCN1CCCC1CNC(=O)c1cc(S(=O)(=O)CC)c(N)cc1OC (centres undefined) [AMISULPRIDE]

>  <AC50>
> 30 µM

$$$$
>  <compound>
CCCCC(=O)O[C@]1(C(=O)CO)[C@@H](C)C[C@H]2[C@@H]3CCC4=CC(=O)C=C[C@]4(C)[C@@]3(F)[C@@H](O)C[C@@]21C [BETAMETHASONE VALERATE]

>  <AC50>
> 30 µM

$$$$
>  <compound>
CNC1=Nc2ccc(Cl)cc2C(c2ccccc2)=[N+]([O-])C1 [CHLORDIAZEPOXIDE]

>  <AC50>
> 30 µM

$$$$
>  <compound>
C/N=C(\NC)NCc1ccccc1 [BETHANIDINE]

>  <AC50>
> 30 µM

$$$$
>  <compound>
Oc1ccc2c(c1)[C@@]13CCCC[C@@]1(O)[C@@H](C2)N(CC1CCC1)CC3 [BUTORPHANOL]

>  <AC50>
> 30 µM

$$$$
>  <compound>
Nc1cc(-c2ccncc2)c[nH]c1=O [INAMRINONE]

>  <AC50>
> 30 µM

$$$$
>  <compound>
CNCc1ccc(-c2[nH]c3cc(F)cc4c3c2CCNC4=O)cc1 [RUCAPARIB]

>  <AC50>
> 30 µM

$$$$
>  <compound>
Cc1noc(NS(=O)(=O)c2ccc(N)cc2)c1C [SULFISOXAZOLE]

>  <AC50>
> 10 µM

$$$$
>  <compound>
Cc1cc(C(C)(C)C)cc(C)c1CC1=NCCN1 [XYLOMETAZOLINE]

>  <AC50>
> 30 µM

$$$$
>  <compound>
CCCCCC(=O)O[C@]1(C(C)=O)CC[C@H]2[C@@H]3CCC4=CC(=O)CC[C@]4(C)[C@H]3CC[C@@]21C [HYDROXYPROGESTERONE CAPROATE]

>  <AC50>
> 30 µM

$$$$

----------
molecular target: Gamma-aminobutyric acid receptor subunit alpha-1 (Rattus norvegicus, UniProt P62813); type: functional; further: assay procedure not described here
Sequence (P62813 whole entry): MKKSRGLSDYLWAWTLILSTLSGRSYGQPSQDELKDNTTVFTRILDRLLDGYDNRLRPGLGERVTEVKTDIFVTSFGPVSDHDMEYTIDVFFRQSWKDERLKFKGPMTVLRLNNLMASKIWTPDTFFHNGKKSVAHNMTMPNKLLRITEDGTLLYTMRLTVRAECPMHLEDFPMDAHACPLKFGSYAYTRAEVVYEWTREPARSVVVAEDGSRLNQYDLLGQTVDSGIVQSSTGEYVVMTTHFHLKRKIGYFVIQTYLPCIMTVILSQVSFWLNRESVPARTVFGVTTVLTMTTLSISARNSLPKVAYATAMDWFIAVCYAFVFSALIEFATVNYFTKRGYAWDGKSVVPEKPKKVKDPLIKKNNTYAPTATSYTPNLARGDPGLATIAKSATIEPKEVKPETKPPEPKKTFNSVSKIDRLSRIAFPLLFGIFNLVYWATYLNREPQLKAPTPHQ

>  <molecule>
C[N@+]1(CCF)[C@@H]2CC[C@H]1C[C@@H](OC(=O)C(O)(c1ccccc1)c1ccccc1)C2

>  <measured-on>
Gamma-aminobutyric acid receptor subunit alpha-1 (Rattus norvegicus, UniProt P62813); further: assay procedure not described here

>  <AC50>
> 30 µM

$$$$
>  <molecule>
CC(C(=O)O)c1ccc2c(c1)[nH]c1ccc(Cl)cc12 (stereo not drawn)

>  <measured-on>
Gamma-aminobutyric acid receptor subunit alpha-1 (Rattus norvegicus, UniProt P62813); further: assay procedure not described here

>  <AC50>
> 10 µM

$$$$
>  <molecule>
O=C1CN=C(c2ccccc2)c2cc([N+](=O)[O-])ccc2N1

>  <measured-on>
Gamma-aminobutyric acid receptor subunit alpha-1 (Rattus norvegicus, UniProt P62813); further: assay procedure not described here

>  <AC50>
0.022 µM

$$$$
>  <molecule>
CCN(CC)CCNC(=O)c1c(C)[nH]c(/C=C2\C(=O)Nc3ccc(F)cc32)c1C

>  <measured-on>
Gamma-aminobutyric acid receptor subunit alpha-1 (Rattus norvegicus, UniProt P62813); further: assay procedure not described here

>  <AC50>
> 30 µM

$$$$
>  <molecule>
Cc1onc(-c2ccccc2)c1-c1ccc(S(N)(=O)=O)cc1

>  <measured-on>
Gamma-aminobutyric acid receptor subunit alpha-1 (Rattus norvegicus, UniProt P62813); further: assay procedure not described here

>  <AC50>
> 10 µM

$$$$
>  <molecule>
CC(=O)[C@@]1(O)CC[C@H]2[C@@H]3C=C(Cl)C4=CC(=O)[C@@H]5C[C@@H]5[C@]4(C)[C@H]3CC[C@@]21C

>  <measured-on>
Gamma-aminobutyric acid receptor subunit alpha-1 (Rattus norvegicus, UniProt P62813); further: assay procedure not described here

>  <AC50>
> 10 µM

$$$$
>  <molecule>
Cc1cccc(N2CC(CO)OC2=O)c1 (stereo not drawn)

>  <measured-on>
Gamma-aminobutyric acid receptor subunit alpha-1 (Rattus norvegicus, UniProt P62813); further: assay procedure not described here

>  <AC50>
> 30 µM

$$$$
>  <molecule>
CC(C)N(CCC(C(N)=O)(c1ccccc1)c1ccccn1)C(C)C (stereo not drawn) [DISOPYRAMIDE]

>  <measured-on>
Gamma-aminobutyric acid receptor subunit alpha-1 (Rattus norvegicus, UniProt P62813); further: assay procedure not described here

>  <AC50>
> 10 µM

$$$$

Where do the numbers come from? From ChEMBL document CHEMBL5291721.
